- assayed.target: Alpha-2A adrenergic receptor (Homo sapiens, UniProt P08913); also: assay procedure not described here
- Sequence (P08913 whole entry): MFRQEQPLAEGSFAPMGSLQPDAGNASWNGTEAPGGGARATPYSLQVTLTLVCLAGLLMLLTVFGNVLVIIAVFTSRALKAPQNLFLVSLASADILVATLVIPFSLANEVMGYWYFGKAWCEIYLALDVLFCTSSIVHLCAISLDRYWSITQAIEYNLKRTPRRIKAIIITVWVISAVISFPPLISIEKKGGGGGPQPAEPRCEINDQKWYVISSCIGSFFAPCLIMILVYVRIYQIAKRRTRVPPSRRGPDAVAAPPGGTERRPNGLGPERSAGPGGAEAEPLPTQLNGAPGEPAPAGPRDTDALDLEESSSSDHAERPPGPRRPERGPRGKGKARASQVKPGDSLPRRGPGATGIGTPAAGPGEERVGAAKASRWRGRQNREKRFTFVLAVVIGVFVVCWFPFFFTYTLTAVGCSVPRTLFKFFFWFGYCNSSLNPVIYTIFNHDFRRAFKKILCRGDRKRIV
- Assay type: functional, cell-based
recorded.metric: AC50

Given the entry "Cn1c(=O)c2c(ncn2CC2OCCO2)n(C)c1=O" , report its measured AC50.
> 30 µM

Data request, read-out AC50, for "C[C@@H]1O[C@@H](O[C@@H]2C=C3CC[C@@H]4[C@H](CC[C@]5(C)[C@@H](c6ccc(=O)oc6)CC[C@]45O)[C@@]3(C)CC2)[C@H](O)[C@H](O)[C@H]1O"
> 30 µM

Suppose we examine the compound "Cc1cc(C)c(NC(=O)CN(CC(=O)O)CC(=O)O)c(C)c1Br" ; what AC50 value has been reported?
> 30 µM

What does the record list as AC50 for COc1ccc(C(=O)Nc2ccccc2CCC2CCCCN2C)cc1 (stereo unspecified) [ENCAINIDE] ?
> 10 µM

Please give the measured AC50 for this compound: COC(=O)C1=C(C)NC(C)=C(C(=O)OC(C)(C)CN(C)CCC(c2ccccc2)c2ccccc2)C1c1cccc([N+](=O)[O-])c1 (stereo unspecified)
> 30 µM

Would you mind telling me what AC50 value was observed for C=CCc1ccccc1OCC(O)CNC(C)C (stereo unspecified) ?
> 30 µM

Given O=C(NCCNCC(O)COc1ccc(O)cc1)N1CCOCC1 (stereo unspecified) , state its recorded AC50.
> 30 µM

Return reported AC50; argument: "CC=CC(=O)N(CC)c1ccccc1C"
> 10 µM

Field request: AC50 | item: "CN1CCC(=C2c3ccccc3CCc3sccc32)CC1"
3.97 µM

Record request: AC50 value, item COC(=O)C1=C(C)NC(C)=C(C(=O)OC2CCCN(Cc3ccccc3)C2)C1c1cccc([N+](=O)[O-])c1 (stereo unspecified)
> 30 µM

Recorded AC50 for COc1cc2nc(N(C)CCCNC(=O)C3CCCO3)nc(N)c2cc1OC (stereo unspecified) , please?
6.8 µM

Please give the measured AC50 for this compound: "C[C@H]1CNCCc2ccc(Cl)cc21"
7.2 µM

For "COC(=O)[C@H]1[C@H]2C[C@@H]3c4[nH]c5cc(OC)ccc5c4CCN3C[C@H]2C[C@@H](OC(=O)/C=C/c2cc(OC)c(OC)c(OC)c2)[C@@H]1OC" , what is its reported AC50?
> 10 µM

# get_value(readout='AC50', item= CC(CC1c2ccccc2CCc2ccccc21)CN(C)C (stereo unspecified) )
> 30 µM

# lookup: AC50 of "CN(C)/N=N/c1[nH]cnc1C(N)=O"
> 10 µM

Give the measured AC50 of "c1cnc(N2CCN(Cc3ccc4c(c3)OCO4)CC2)nc1" .
0.059 µM

Item "CCCSc1ccc2nc(NC(=O)OC)[nH]c2c1" has what recorded AC50?
> 10 µM

Sample CCC(C)n1ncn(-c2ccc(N3CCN(c4ccc(OCC5COC(Cn6cncn6)(c6ccc(Cl)cc6Cl)O5)cc4)CC3)cc2)c1=O (stereo unspecified) — what was its AC50?
> 30 µM

Find the recorded AC50 belonging to O=C(O)[C@H](CC(=O)N1C[C@H]2CCCC[C@H]2C1)Cc1ccccc1 [MITIGLINIDE] and report it.
> 10 µM

Which AC50 is reported for this compound? "CS(=O)(=O)c1ccc(C2=C(c3ccccc3)C(=O)OC2)cc1"
> 30 µM

Find the recorded AC50 belonging to "COc1ccccc1N1CCN(CCCNc2cc(=O)n(C)c(=O)n2C)CC1" and report it.
11 µM

---

- assayed.target: Equilibrative nucleoside transporter 1 (Homo sapiens, UniProt Q99808); also: assay procedure not described here
- Sequence (Q99808 whole entry): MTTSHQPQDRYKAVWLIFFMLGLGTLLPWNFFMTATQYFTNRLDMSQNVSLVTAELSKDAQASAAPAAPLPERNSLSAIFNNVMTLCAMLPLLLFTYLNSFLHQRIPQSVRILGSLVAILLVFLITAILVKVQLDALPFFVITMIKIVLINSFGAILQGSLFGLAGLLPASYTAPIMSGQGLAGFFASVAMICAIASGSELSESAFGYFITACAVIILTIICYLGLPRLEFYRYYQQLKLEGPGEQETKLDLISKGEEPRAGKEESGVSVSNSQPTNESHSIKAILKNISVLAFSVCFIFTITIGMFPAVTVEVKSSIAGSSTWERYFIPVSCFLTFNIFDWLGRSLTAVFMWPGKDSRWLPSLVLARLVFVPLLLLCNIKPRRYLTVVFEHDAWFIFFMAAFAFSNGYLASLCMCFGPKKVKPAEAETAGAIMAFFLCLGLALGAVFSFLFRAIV
Provide the recorded AC50 for the entries that follow.

Entry CC(C(=O)O)c1ccc(N2Cc3ccccc3C2=O)cc1 (stereo not drawn) has what AC50?
> 30 µM

# query: AC50 of entry O=[N+]([O-])O[C@@H]1CO[C@H]2[C@@H]1OC[C@@H]2O [ISOSORBIDE MONONITRATE]
> 30 µM

Which measured AC50 value corresponds to "Nc1nc(NC2CC2)c2ncn([C@H]3C=C[C@@H](CO)C3)c2n1" ?
> 30 µM

Need AC50, item "c1ccc([C@H]2CN3CCSC3=N2)cc1"
> 30 µM

Reported AC50, molecule "CN(C)CCC=C1c2ccccc2C=Cc2ccccc21" : ____
> 30 µM

What AC50 value was documented for this molecule, "CC[C@H]1OC(=O)[C@H](C)[C@@H](O[C@H]2C[C@@](C)(OC)[C@@H](O)[C@H](C)O2)[C@H](C)[C@@H](O[C@@H]2O[C@H](C)C[C@H](N(C)C)[C@H]2O)[C@](C)(O)C[C@@H](C)CN(C)[C@H](C)[C@@H](O)[C@]1(C)O" ?
> 30 µM

Which AC50 reading was recorded for the molecule CCC(C(=O)O)c1ccc(N2Cc3ccccc3C2=O)cc1 (stereo not drawn) ?
> 30 µM

Could you share which AC50 value was measured for CC1=C(C(=O)O)N2C(=O)[C@@H](NC(=O)[C@H](N)c3ccccc3)[C@H]2SC1 [CEPHALEXIN ANHYDROUS] ?
> 30 µM

Give the measured AC50 of Clc1ccc(C(c2ccccc2Cl)C(Cl)Cl)cc1 (stereo not drawn) .
> 10 µM

Using the record for "O=C1Nc2ccc(Cl)cc2[C@@](C#CC2CC2)(C(F)(F)F)O1" , report its AC50.
> 30 µM

What does the data say about its AC50? Entry: CCCCCCOc1ccccc1C(N)=O [EXALAMIDE]
> 30 µM

Look up AC50: "CC[C@@H]1C(=O)OC[C@@H]1Cc1cncn1C"
> 30 µM

Give its AC50 value. Item: CC(=O)O[C@H]1CC[C@@]2(C)C(=CC[C@@H]3[C@@H]2CC[C@]2(C)C(c4cccnc4)=CC[C@@H]32)C1 [ABIRATERONE ACETATE]
> 30 µM

# get_value(readout='AC50', item= "CCCc1nc(C(C)(C)O)c(C(=O)OCc2oc(=O)oc2C)n1Cc1ccc(-c2ccccc2-c2nnn[nH]2)cc1" )
> 50 µM

I have this molecule here, "Nc1ccn([C@H]2CC[C@@H](CO)O2)c(=O)n1" , and I need its recorded AC50.
> 10 µM

For the molecule "CCN1CCN(C(=O)N[C@@H](C(=O)N[C@@H]2C(=O)N3C(C(=O)O)=C(CSc4nnnn4C)CS[C@H]23)c2ccc(O)cc2)C(=O)C1=O" , what AC50 is on record?
> 30 µM

Given the molecule CCC(C)n1ncn(-c2ccc(N3CCN(c4ccc(OCC5COC(Cn6cncn6)(c6ccc(Cl)cc6Cl)O5)cc4)CC3)cc2)c1=O (stereo not drawn) , what is its reported AC50?
> 30 µM

Please look up its AC50: "CCOC(=O)[N-]c1cn(N2CCOCC2)n[o+]1"
> 30 µM

---

- assayed.target: 5-hydroxytryptamine receptor 1A (Homo sapiens); also: assay procedure not described here
- Sequence (P08908 whole entry): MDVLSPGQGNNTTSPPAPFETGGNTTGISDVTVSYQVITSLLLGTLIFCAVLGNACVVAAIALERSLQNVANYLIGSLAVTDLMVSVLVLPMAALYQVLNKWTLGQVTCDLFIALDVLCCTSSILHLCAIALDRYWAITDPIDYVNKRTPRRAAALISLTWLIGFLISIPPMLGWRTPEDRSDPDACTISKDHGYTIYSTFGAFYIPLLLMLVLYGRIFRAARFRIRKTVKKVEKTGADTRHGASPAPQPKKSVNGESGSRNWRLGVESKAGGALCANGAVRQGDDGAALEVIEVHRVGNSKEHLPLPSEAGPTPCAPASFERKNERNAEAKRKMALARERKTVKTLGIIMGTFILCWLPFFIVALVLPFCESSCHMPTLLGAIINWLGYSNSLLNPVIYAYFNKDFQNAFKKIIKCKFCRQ
- Type: functional, cell-based
I'd be grateful if you could share measured AC50 for these entries.

Look up AC50 with 5-hydroxytryptamine receptor 1A (Homo sapiens) for this compound: "COc1ccc2c3c1O[C@H]1[C@@H](O)C=C[C@H]4[C@@H](C2)N(C)CC[C@@]341"
> 10 µM

Provide the documented AC50 with 5-hydroxytryptamine receptor 1A (Homo sapiens) as the system for "CC[C@@H](C(N)=O)N1CCCC1=O"
> 30 µM

State its AC50 on 5-hydroxytryptamine receptor 1A (Homo sapiens): NC(=O)CN1CC(O)CC1=O (stereo not drawn)
> 30 µM

Write down the reported AC50 of "COc1cc2c(N)nc(N3CCN(C(=O)OCC(C)(C)O)CC3)nc2c(OC)c1OC" , test system: 5-hydroxytryptamine receptor 1A (Homo sapiens). Also: assay procedure not described here.
> 30 µM

Record CCC(C)n1ncn(-c2ccc(N3CCN(c4ccc(OCC5COC(Cn6cncn6)(c6ccc(Cl)cc6Cl)O5)cc4)CC3)cc2)c1=O (stereo not drawn) : what is its AC50 with 5-hydroxytryptamine receptor 1A (Homo sapiens)?
> 30 µM

Form: Entry = C=CCC1(C(C)CC)C(=O)NC(=O)NC1=O (stereo not drawn) | System = 5-hydroxytryptamine receptor 1A (Homo sapiens) | AC50 = ____; also: assay procedure not described here
> 10 µM

Give AC50 (5-hydroxytryptamine receptor 1A (Homo sapiens)) of the following compound: CC(C[N+](C)(C)C)OC(N)=O (stereo not drawn)
> 10 µM

// lookup AC50 | system=5-hydroxytryptamine receptor 1A (Homo sapiens) | key= "C[C@]1(O)CC[C@H]2[C@@H]3CCC4=CC(=O)CC[C@]4(C)[C@@]3(F)[C@@H](O)C[C@@]21C"
> 10 µM

# get_value(readout= AC50, system= 5-hydroxytryptamine receptor 1A (Homo sapiens)) for C[C@]12CCC(=O)C=C1CC[C@@H]1[C@@H]2[C@@H](O)C[C@@]2(C)[C@H]1CC[C@]2(O)C(=O)CO [HYDROCORTISONE]; also: assay procedure not described here
> 10 µM

Hello, I am looking for reported AC50 with 5-hydroxytryptamine receptor 1A (Homo sapiens) for CCCC1O[C@@H]2C[C@H]3[C@@H]4CCC5=CC(=O)C=C[C@]5(C)[C@H]4[C@@H](O)C[C@]3(C)[C@]2(C(=O)CO)O1 (stereo partly drawn) [BUDESONIDE] . Could you help?
> 10 µM

Give recorded AC50 with 5-hydroxytryptamine receptor 1A (Homo sapiens) for the following compound: "Cc1c(C(=O)NN2CCCCC2)nn(-c2ccc(Cl)cc2Cl)c1-c1ccc(Cl)cc1"
> 30 µM

Given the entry "O=C(O)C1=C(CSc2nnnn2CS(=O)(=O)O)CS[C@@H]2[C@H](NC(=O)[C@H](O)c3ccccc3)C(=O)N12" , what AC50 was observed with 5-hydroxytryptamine receptor 1A (Homo sapiens)?
> 30 µM

Hi! What's the reported AC50 for "CC[C@H]1[C@@H](O)[C@@H]2[C@H](CC[C@]3(C)[C@@H]([C@H](C)CCC(=O)O)CC[C@@H]23)[C@@]2(C)CC[C@@H](O)C[C@@H]12" on 5-hydroxytryptamine receptor 1A (Homo sapiens)?
> 30 µM

Request - read-out AC50 | tested on 5-hydroxytryptamine receptor 1A (Homo sapiens) | compound CC(Oc1c(Cl)cccc1Cl)C1=NCCN1 (stereo not drawn); also: assay procedure not described here
1.1 µM

Form: Entry = C1CCC(C(CC2CCCCN2)C2CCCCC2)CC1 (stereo not drawn) | System = 5-hydroxytryptamine receptor 1A (Homo sapiens) | AC50 = ____; also: assay procedure not described here
9.1 µM

Any idea what AC50 came out for Cc1c(OCC(F)(F)F)ccnc1C[S+]([O-])c1nc2ccccc2[nH]1 (stereo not drawn) on 5-hydroxytryptamine receptor 1A (Homo sapiens)?
> 10 µM

Notebook entry, 5-hydroxytryptamine receptor 1A (Homo sapiens) assay: AC50 of "C[C@H](CSC(=O)c1ccccc1)C(=O)N1C[C@@H](Sc2ccccc2)C[C@H]1C(=O)O" = ?
> 10 µM

Please state recorded AC50 (tested on 5-hydroxytryptamine receptor 1A (Homo sapiens)) of "CCCSc1ccc2nc(NC(=O)OC)[nH]c2c1"
> 10 µM

Request: AC50, test system 5-hydroxytryptamine receptor 1A (Homo sapiens), entry COc1ccc2c3c1O[C@H]1[C@@H](O)CC[C@H]4[C@@H](C2)N(C)CC[C@@]341 [DIHYDROCODEINE]; also: assay procedure not described here
> 30 µM

5-hydroxytryptamine receptor 1A (Homo sapiens) / AC50 / "Cc1cccc(Nc2ccccc2C(=O)O)c1C" : value?; also: assay procedure not described here
> 10 µM

For the record "Cc1cn([C@H]2C[C@H](N=[N+]=[N-])[C@@H](CO)O2)c(=O)[nH]c1=O" , what value of AC50 is listed for 5-hydroxytryptamine receptor 1A (Homo sapiens)?
> 10 µM

Reported AC50 for 5-hydroxytryptamine receptor 1A (Homo sapiens), given O=P1(NCCCl)OCCCN1CCCl (stereo not drawn) [IFOSFAMIDE] ?
> 30 µM

Find AC50 (5-hydroxytryptamine receptor 1A (Homo sapiens)) for the entry CCCCCCOc1ccccc1C(N)=O [EXALAMIDE]
> 30 µM
